# credit: ChEMBL document CHEMBL1137283

Record set of IC50 for target or system 11-beta-hydroxysteroid dehydrogenase 1 (Mus musculus, UniProt P50172).
Numbers only, in nM.

Some compounds with recorded IC50:
Q. // Input: `CC(C)(Oc1ccc(Cl)cc1)C(=O)N[C@H]1C2C[C@@H]3C[C@H]1C[C@@](/C(N)=N/O)(C2)C3` . Output its IC50 only.
A. 26

Q. Look up and state reported IC50 for `CC(C)(Oc1ccc(N2CCOCC2)cn1)C(=O)N[C@H]1C2C[C@@H]3C[C@H]1C[C@@](CC(N)=O)(C2)C3`
A. 51

Q. Answer with the recorded IC50 for the compound listed here: `CC(C)(Oc1ccc(Cl)cc1)C(=O)N[C@H]1C2C[C@@H]3C[C@H]1C[C@@](CCC(=O)O)(C2)C3`
A. 74

Q. Give the measured IC50 for `CC(C)(C(=O)N[C@H]1C2C[C@@H]3C[C@H]1C[C@@](CC(N)=O)(C2)C3)c1ccc(C#N)cn1`
A. 65

# ---- query compound ----
Q. Return the recorded IC50 value; entry: `CC(C)(Oc1ccc(Br)cn1)C(=O)N[C@H]1C2C[C@@H]3C[C@H]1C[C@@](CC(N)=O)(C2)C3`
A. 4

* * *

For each entry below, report its inhibition value.
# Test target: 11-beta-hydroxysteroid dehydrogenase 1 (Mus musculus)
# Sequence (P50172 whole entry): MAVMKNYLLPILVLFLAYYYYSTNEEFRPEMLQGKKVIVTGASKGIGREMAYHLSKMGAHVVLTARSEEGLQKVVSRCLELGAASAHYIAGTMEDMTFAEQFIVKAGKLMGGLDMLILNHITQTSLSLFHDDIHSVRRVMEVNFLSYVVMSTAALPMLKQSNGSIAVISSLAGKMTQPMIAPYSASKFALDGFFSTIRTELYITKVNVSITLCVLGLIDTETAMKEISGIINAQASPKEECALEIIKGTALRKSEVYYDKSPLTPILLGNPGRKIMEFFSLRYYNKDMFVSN
# Measurement protocol: Inhibition of DIO mouse liver 11beta-HSD1 at 30 mg/kg 16 hrs post dose
# Type: organism-based
# Design: dose 30 mg/kg
One number for each entry, in %.

Q. // output inhibition; input `CC(C)(Oc1ccc(Cl)cc1)C(=O)N[C@H]1C2C[C@@H]3C[C@H]1C[C@@](CCC(=O)O)(C2)C3` ; system 11-beta-hydroxysteroid dehydrogenase 1 (Mus musculus)
A. 93

State recorded inhibition for all listed molecules.
1. CC(C)(Oc1ccc(Cl)cc1)C(=O)N[C@H]1C2C[C@@H]3C[C@H]1C[C@@](/C(N)=N/O)(C2)C3
2. CC(C)(Oc1ccc(Br)cn1)C(=O)N[C@H]1C2C[C@@H]3C[C@H]1C[C@@](CC(N)=O)(C2)C3
3. CC(C)(Oc1ccc(Cl)cc1)C(=O)N[C@H]1C2C[C@@H]3C[C@H]1C[C@@](Cc1nnn[nH]1)(C2)C3
4. CC(C)(Oc1ccc(Cl)cc1)C(=O)N[C@H]1C2C[C@@H]3C[C@H]1C[C@@](CC(=O)O)(C2)C3

A.
84
0
37
0

* * *

# Test target: UniProt P50172
# Measurement protocol: Inhibition of DIO mouse adipose tissue 11beta-HSD1 at 30 mg/kg 16 hrs post dose
# Assay type: organism-based
# Design: dose 30 mg/kg
Measure name: inhibition (%)
Answers are plain numbers, in %.

Some compounds with recorded inhibition:
Q. Identify measured inhibition corresponding to `CC(C)(Oc1ccc(Cl)cc1)C(=O)N[C@H]1C2C[C@@H]3C[C@H]1C[C@@](CCC(=O)O)(C2)C3`
A. 23

Q. Please supply the value of reported inhibition for the item `CC(C)(Oc1ccc(Br)cn1)C(=O)N[C@H]1C2C[C@@H]3C[C@H]1C[C@@](CC(N)=O)(C2)C3`
A. 23

Q. Supply measured inhibition of `CC(C)(Oc1ccc(Cl)cc1)C(=O)N[C@H]1C2C[C@@H]3C[C@H]1C[C@@](/C(N)=N/O)(C2)C3` in your reply.
A. 67

Q. Return the recorded inhibition value; entry: `CC(C)(Oc1ccc(Cl)cc1)C(=O)N[C@H]1C2C[C@@H]3C[C@H]1C[C@@](Cc1nnn[nH]1)(C2)C3`
A. 20

Continuing:
Q. Specify reported inhibition for the compound shown: `CC(C)(Oc1ccc(Cl)cc1)C(=O)N[C@H]1C2C[C@@H]3C[C@H]1C[C@@](CC(=O)O)(C2)C3`
A. 35
